B1: TRIM35 (parent)
chain: PTCPVCKDRASPADLRTNHTLNNL

Variants of: B1
ASSAY_PROCEDURE: protein stability index of a GFP-peptide fusion (GPS, HEK-293T) (PSI 1-6); higher = more stable;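 further: lentivirally expressed fusions sorted by FACS into six bins by GFP to DsRed ratio, PSI derived from sequencing read proportions per bin multiplied by bin number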
TEST_CONTEXT: c terminus: a fixed tail appended
ASSAY_READOUT: protein stability index
Output spec: single numeric token, no unit.

H19T : 2.81

Input line: Reported protein stability index, variant P12D : ____
Output line: 3.5

Input line: Any idea what its protein stability index is? The variant is D8Y
Output line: 2.02

Sourced from the supplement of paper PMC10567573
